Tested on: Saccharomyces cerevisiae
TEST_SUMMARY: transcriptional activation domain activity (GFP:mCherry ratio, weighted mean of sorted bins, harmonized to initial dataset scale) (arbitrary fluorescence ratio units); higher = stronger transcriptional activation
CONDITIONS: beta-estradiol 1 µM; induction time 4 h
ASSAY_ENDPOINT: transcriptional activation domain activity
Provide a numeric answer; units are not to be included.

Known transcriptional activation domain activity results, listed for orientation:
SEQUENCE_DATA: WSVLLCFAVSFFSFSFLSFWAVTALCYGFVFVFFILLCVLCCFSFAFSHVYLF
REPORTED_MEASUREMENT: 49600

SEQUENCE_DATA: PEVMHALLFWTSNLLLFGINAIAFSKVSWFITLIRLVVNCRQKVALWMLMVFS
REPORTED_MEASUREMENT: 60100

SEQUENCE_DATA: VAAFAVFCSIEARGSLYVFSVDAVKRVGRRIKHFWHGVWTVLRTAVLLCTCGR
REPORTED_MEASUREMENT: 77400

SEQUENCE_DATA: YVRRARGYVMYGLFQLMLRFLLAGFFFFSFRGGDMGIGCGYRLLLLLFFFFIY
REPORTED_MEASUREMENT: 35800

// moving on: another record for transcriptional activation domain activity
Request: // returns reported transcriptional activation domain activity for input PPYALGYFGESDHGFCSLKVDLVYSNFMIYYLIVVPRLLVYFYCLLILFFIAM
Result: 61600
